Where these numbers come from: patent US5811456A

# Target: rat brain MAO A (Rattus norvegicus, UniProt P21396)
# Construct: makes it possible to obtain a pellet enriched in mitochondria; from tissue; host or cells: Wistar rat brain without cerebellum, mitochondria-enriched pellet
# Sequence (P21396 whole entry): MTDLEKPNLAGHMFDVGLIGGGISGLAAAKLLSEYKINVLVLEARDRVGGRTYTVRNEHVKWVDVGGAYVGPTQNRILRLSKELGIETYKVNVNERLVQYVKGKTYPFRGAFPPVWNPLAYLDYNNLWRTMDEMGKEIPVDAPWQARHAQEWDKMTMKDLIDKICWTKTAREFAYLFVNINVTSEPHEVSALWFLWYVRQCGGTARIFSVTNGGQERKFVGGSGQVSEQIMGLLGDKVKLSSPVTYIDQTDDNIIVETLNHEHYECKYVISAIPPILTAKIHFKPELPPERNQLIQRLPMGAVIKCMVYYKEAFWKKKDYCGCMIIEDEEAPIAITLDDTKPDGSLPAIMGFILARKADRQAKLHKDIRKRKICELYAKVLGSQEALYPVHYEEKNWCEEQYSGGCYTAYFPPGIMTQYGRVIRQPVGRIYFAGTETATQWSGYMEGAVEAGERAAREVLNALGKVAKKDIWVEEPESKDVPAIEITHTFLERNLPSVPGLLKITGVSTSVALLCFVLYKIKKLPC
# Protocol Notes: Inhibitory activity toward rat brain MAO A in vitro (14C-serotonin substrate)
# Type: biochemical
# Study Conditions: ap: after preincubation (30 minutes, 37° C.)
Below is a list of entries, each paired with its recorded IC50 value.
Kindly provide the numeric value in µM only, without the unit symbol.

I would be grateful if you could share the reported IC50 for CC(=O)N(CCO)N=Cc1ccc(OCc2ccccc2)cc1 .
50

I would be grateful if you could share the reported IC50 for CC(=O)N(CCC#N)N=Cc1ccc(OCCc2ccccc2)cc1 .
6.8

----------
# Protocol Notes: MTT cytotoxicity test on adherent cells
# Format: cell-based
# Study Conditions: human, hela ohio cells, read-out: MC100 (maximum concentration for which all the cells are alive)
Endpoint Label: MNTC at 24 h (µM)
Kindly provide the numeric value in µM only, without the unit symbol.

[[record]]
compound = "COc1ccc(COc2ccc(C=NN(CCC#N)C(C)=O)cc2)cc1 [I-a2.4]"
endpoint_label = "MNTC at 24 h"
assay_value = 2.3


Kindly review the next compound as well.
I would be grateful if you could share the reported MNTC at 24 h for CC(=O)N(CCO)N=Cc1ccc(OCc2ccccc2)cc1 [I-a4] .
10

----------
# Target: rat brain MAO B (Rattus norvegicus)
# Construct: makes it possible to obtain a pellet enriched in mitochondria; from tissue; host or cells: Wistar rat brain without cerebellum, mitochondria-enriched pellet
# Protocol Notes: Inhibitory activity toward rat brain MAO B in vitro (14C-beta-phenylethylamine substrate)
# Type: biochemical
# Study Conditions: wp: without preincubation; read-out: IC50 MAO B
Below is a list of entries, each paired with its recorded IC50 value.
Kindly provide the numeric value in µM only, without the unit symbol.

Example compounds with recorded IC50:
[[record]]
compound = "CCOC(=O)N(CCO)N=Cc1ccc(OCc2ccccc2)cc1 [I-b4]"
endpoint_label = "IC50"
assay_value = 35

[[record]]
compound = "COc1ccc(COc2ccc(C=NN(CCC#N)C(C)=O)cc2)cc1 [I-a2.4]"
endpoint_label = "IC50"
assay_value = 28

[[record]]
compound = "CC(=O)N(CCC#N)N=Cc1ccc(OCCc2ccccc2)cc1 [I-a6]"
endpoint_label = "IC50"
assay_value = 3


I would be grateful if you could share the reported IC50 for CC(=O)N(CCO)N=Cc1ccc(OCc2ccccc2)cc1 [I-a4] .
0.028

I would be grateful if you could share the reported IC50 for CNC(=O)N(CCC#N)N=Cc1ccccc1 [I-c1] .
280

I would be grateful if you could share the reported IC50 for C#CCN(N=Cc1ccc(OCc2ccccc2)cc1)C(C)=O [I-a10] .
4.1

----------
# Target: rat brain MAO B (Rattus norvegicus, UniProt P19643)
# Construct: makes it possible to obtain a pellet enriched in mitochondria; from tissue; host or cells: Wistar rat brain without cerebellum, mitochondria-enriched pellet
# Sequence (P19643 whole entry): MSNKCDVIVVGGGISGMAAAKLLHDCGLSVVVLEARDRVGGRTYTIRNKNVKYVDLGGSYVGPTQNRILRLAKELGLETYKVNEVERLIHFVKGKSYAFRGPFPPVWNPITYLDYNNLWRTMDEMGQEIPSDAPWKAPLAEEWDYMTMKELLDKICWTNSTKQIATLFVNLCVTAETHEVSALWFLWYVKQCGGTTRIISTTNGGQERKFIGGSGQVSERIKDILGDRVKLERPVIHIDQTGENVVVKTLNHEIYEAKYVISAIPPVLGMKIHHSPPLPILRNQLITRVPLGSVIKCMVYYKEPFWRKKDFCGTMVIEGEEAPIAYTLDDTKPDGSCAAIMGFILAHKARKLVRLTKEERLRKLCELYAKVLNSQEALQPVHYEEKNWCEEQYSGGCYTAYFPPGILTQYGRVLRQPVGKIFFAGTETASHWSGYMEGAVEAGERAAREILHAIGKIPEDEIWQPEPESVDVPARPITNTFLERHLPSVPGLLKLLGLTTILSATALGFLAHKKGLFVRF
# Protocol Notes: Inhibitory activity toward rat brain MAO B in vitro (14C-beta-phenylethylamine substrate)
# Format: biochemical
Endpoint Label: IC50 (nM)
Kindly provide the numeric value in nM only, without the unit symbol.

I would be grateful if you could share the reported IC50 for CC(=O)N(CCC#N)N=Cc1ccc(OCc2ccc(Cl)cc2Cl)cc1 .
380

----------
Below is a list of entries, each paired with its recorded MNTC at 24 h value.
# Protocol Notes: Cytotoxicity test on the cells in suspension (Trypan blue)
# Assay type: cell-based
# Study Conditions: human, daudi cells, read-out: MC100 (maximum concentration for which all the cells are alive)
Numeric answer plus unit only.

[[record]]
molecule = "COc1ccc(COc2ccc(C=NN(CCC#N)C(C)=O)cc2)cc1 [I-a2.4]"
assay_value = "12.5 µM"


Kindly review the next molecule as well.
I would be grateful if you could share the reported MNTC at 24 h for CC(=O)N(CCO)N=Cc1ccc(OCc2ccccc2)cc1 [I-a4] .
10 µM
